Form field: pIC50 (one value per entry).
- ASSAY_SYSTEM: UniProt:P08253
- ASSAY_PROCEDURE: Inhibition of MMP2
Give only the number. pIC50 is defined as minus log10 of concentration in molar units.

Sample answers from the record:
smiles_entry=C(=C\c1ccccc1)/Cn1cc(C2=NCCO2)nn1 assay_system=UniProt:P08253 value_reported=3.83
smiles_entry=Cc1cccc(COC(=O)c2cccc(S)n2)c1 assay_system=UniProt:P08253 value_reported=5.15

# input Hello, please tell me recorded pIC50 for this one: O=C(OCCc1ccccc1)c1cccc(=S)[nH]1
# output 3.92

# input Hello, please tell me recorded pIC50 for this one: Cc1ccc(COC(=O)c2cccc(=O)[nH]2)cc1
# output 4.14

# input Hello, please tell me recorded pIC50 for this one: O=C(OCc1ccc(Oc2ccccc2)cc1)c1cccc(S)n1
# output 4.03

====

- ASSAY_SYSTEM: Macrophage metalloelastase (Homo sapiens, UniProt P39900)
- Sequence (P39900 whole entry): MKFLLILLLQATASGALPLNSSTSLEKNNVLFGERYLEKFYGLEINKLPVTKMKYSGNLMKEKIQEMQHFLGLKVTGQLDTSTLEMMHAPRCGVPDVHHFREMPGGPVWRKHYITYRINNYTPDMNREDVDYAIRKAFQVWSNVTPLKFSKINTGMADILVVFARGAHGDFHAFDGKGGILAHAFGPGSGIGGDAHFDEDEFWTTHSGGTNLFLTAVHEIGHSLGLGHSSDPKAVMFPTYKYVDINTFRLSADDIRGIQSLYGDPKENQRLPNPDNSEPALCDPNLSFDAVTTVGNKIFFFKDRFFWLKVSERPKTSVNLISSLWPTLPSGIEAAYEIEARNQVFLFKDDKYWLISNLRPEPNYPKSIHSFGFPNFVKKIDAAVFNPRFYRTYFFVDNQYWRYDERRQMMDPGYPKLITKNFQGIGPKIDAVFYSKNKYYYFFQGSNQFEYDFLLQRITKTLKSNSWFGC
Form field: IC50 (one value per entry).

Sample answers from the record:
smiles_entry=O=C(OCc1ccc2c(c1)OCO2)c1cccc(=O)[nH]1 value_reported="105 µM"
smiles_entry=O=C(OCCc1ccccc1)c1cccc(=O)[nH]1 value_reported="68 µM"

# input Hello, please tell me recorded IC50 for this one: Cc1ccc(COC(=O)c2cccc(=O)[nH]2)cc1
# output 69 µM

# input Hello, please tell me recorded IC50 for this one: CC(C)=CCOC(=O)c1cccc(=O)[nH]1
# output 67 µM

====

// values below are IC50; system is Matrix metalloproteinase-9 (Homo sapiens)
Sequence (P14780 whole entry): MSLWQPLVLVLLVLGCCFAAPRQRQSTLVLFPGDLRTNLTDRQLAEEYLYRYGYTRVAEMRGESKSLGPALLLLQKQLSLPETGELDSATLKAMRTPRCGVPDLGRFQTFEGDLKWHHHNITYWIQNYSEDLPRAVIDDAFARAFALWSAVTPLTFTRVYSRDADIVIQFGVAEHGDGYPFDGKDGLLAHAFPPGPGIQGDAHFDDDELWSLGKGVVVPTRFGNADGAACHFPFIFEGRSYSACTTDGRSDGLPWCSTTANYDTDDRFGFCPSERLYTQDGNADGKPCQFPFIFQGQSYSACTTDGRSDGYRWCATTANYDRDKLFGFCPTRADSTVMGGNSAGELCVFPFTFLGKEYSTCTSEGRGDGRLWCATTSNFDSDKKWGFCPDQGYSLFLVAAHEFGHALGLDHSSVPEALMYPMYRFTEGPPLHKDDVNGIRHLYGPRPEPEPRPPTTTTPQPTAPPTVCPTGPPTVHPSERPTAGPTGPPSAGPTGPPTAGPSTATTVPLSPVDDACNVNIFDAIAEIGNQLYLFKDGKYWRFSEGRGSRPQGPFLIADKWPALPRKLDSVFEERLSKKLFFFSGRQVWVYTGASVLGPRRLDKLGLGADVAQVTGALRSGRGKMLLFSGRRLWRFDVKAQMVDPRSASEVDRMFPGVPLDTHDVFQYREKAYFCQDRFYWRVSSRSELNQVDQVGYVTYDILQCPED
Write the number in µM without appending the unit.

Sample answers from the record:
smiles_entry=O=C(OCCCc1ccccc1)c1cccc(=S)[nH]1 value_reported=112
smiles_entry=O=C(OCc1cccc(-c2ccccc2)c1)c1cccc(=S)[nH]1 value_reported=50

# input Report IC50 under test system Matrix metalloproteinase-9 (Homo sapiens) for O=C(OCc1ccc(F)cc1)c1cccc(=O)[nH]1 .
# output 3

# input Report IC50 under test system Matrix metalloproteinase-9 (Homo sapiens) for O=C(Oc1ccc2ccccc2c1)c1cccc(=O)[nH]1 .
# output 103

# input Report IC50 under test system Matrix metalloproteinase-9 (Homo sapiens) for O=C(OCc1ccccc1F)c1cccc(=O)[nH]1 .
# output 76

====

// values below are pIC50; system is 72 kDa type IV collagenase (Homo sapiens, UniProt P08253)
Sequence (P08253 whole entry): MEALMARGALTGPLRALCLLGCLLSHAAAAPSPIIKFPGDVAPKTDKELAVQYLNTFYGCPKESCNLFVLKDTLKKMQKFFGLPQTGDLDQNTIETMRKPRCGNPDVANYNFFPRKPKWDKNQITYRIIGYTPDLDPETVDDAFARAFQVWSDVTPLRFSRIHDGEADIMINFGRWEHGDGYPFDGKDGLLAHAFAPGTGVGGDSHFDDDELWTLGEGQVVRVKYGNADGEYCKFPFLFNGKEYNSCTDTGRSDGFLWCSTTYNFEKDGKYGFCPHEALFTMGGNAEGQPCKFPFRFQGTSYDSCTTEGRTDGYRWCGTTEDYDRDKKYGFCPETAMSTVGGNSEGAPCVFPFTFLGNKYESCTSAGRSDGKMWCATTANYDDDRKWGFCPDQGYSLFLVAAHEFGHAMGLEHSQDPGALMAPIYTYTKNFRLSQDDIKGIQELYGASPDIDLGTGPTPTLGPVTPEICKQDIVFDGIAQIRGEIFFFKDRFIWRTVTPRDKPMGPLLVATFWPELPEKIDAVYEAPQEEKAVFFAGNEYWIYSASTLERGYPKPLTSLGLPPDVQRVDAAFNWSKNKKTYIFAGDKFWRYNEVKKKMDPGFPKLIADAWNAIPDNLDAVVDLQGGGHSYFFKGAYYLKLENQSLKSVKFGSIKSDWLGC
Give only the number. pIC50 is defined as minus log10 of concentration in molar units.

smiles_entry=O=C(OCc1ccccc1Br)c1cccc(=O)[nH]1 measured_endpoint=pIC50 value_reported=4.24

Turning now to a further compound:
# input Report pIC50 under test system 72 kDa type IV collagenase (Homo sapiens, UniProt P08253) for COc1ccc(COC(=O)c2cccc(=O)[nH]2)cc1 .
# output 3.96

====

// values below are IC50; system is Macrophage metalloelastase (Homo sapiens, UniProt P39900)

smiles_entry=COc1cccc(COC(=O)c2cccc(S)n2)c1 assay_system="Macrophage metalloelastase (Homo sapiens, UniProt P39900)" value_reported="78 µM"
smiles_entry=c1ccc(Cn2cc(C3=NCCO3)nn2)cc1 assay_system="Macrophage metalloelastase (Homo sapiens, UniProt P39900)" value_reported="> 150 µM"
smiles_entry=O=C(Oc1cccc2ccccc12)c1cccc(=S)[nH]1 assay_system="Macrophage metalloelastase (Homo sapiens, UniProt P39900)" value_reported="> 150 µM"
smiles_entry=O=C(OCc1c(F)c(F)c(F)c(F)c1F)c1cccc(=O)[nH]1 assay_system="Macrophage metalloelastase (Homo sapiens, UniProt P39900)" value_reported="63 µM"
smiles_entry=c1ccc(CCCn2cc(C3=NCCO3)nn2)cc1 assay_system="Macrophage metalloelastase (Homo sapiens, UniProt P39900)" value_reported="> 150 µM"
smiles_entry=O=C(OCc1ccccc1Br)c1cccc(S)n1 assay_system="Macrophage metalloelastase (Homo sapiens, UniProt P39900)" value_reported="> 150 µM"
smiles_entry=O=C(Oc1cccc2ccccc12)c1cccc(=O)[nH]1 assay_system="Macrophage metalloelastase (Homo sapiens, UniProt P39900)" value_reported="111 µM"
smiles_entry=O=C(OCc1c(F)cccc1F)c1cccc(=S)[nH]1 assay_system="Macrophage metalloelastase (Homo sapiens, UniProt P39900)" value_reported="127 µM"
smiles_entry=CC(C)OC(=O)c1cccc(S)n1 assay_system="Macrophage metalloelastase (Homo sapiens, UniProt P39900)" value_reported="146 µM"
smiles_entry=O=C(OCc1ccc(F)cc1)c1cccc(=O)[nH]1 assay_system="Macrophage metalloelastase (Homo sapiens, UniProt P39900)" value_reported="65 µM"

# input Report IC50 under test system Macrophage metalloelastase (Homo sapiens, UniProt P39900) for C(=C\c1ccccc1)/Cn1nnc(Cc2cccnc2)n1 .
# output > 150 µM

# input Report IC50 under test system Macrophage metalloelastase (Homo sapiens, UniProt P39900) for O=C(OCc1ccc(Cl)cc1)c1cccc(=O)[nH]1 .
# output 47 µM

# input Report IC50 under test system Macrophage metalloelastase (Homo sapiens, UniProt P39900) for O=C(OCc1cccc(Oc2ccccc2)c1)c1cccc(=O)[nH]1 .
# output 118 µM

# input Report IC50 under test system Macrophage metalloelastase (Homo sapiens, UniProt P39900) for O=C(OCCOc1ccccc1)c1cccc(=O)[nH]1 .
# output 79 µM

# input Report IC50 under test system Macrophage metalloelastase (Homo sapiens, UniProt P39900) for O=C(OCc1ccc(Oc2ccccc2)cc1)c1cccc(S)n1 .
# output 109 µM

====

- ASSAY_SYSTEM: Matrix metalloproteinase-9 (Homo sapiens)
- ASSAY_PROCEDURE: Inhibition of MMP9
Note to self: IC50 under 80 µM means 1, ties and anything higher get 0.

smiles_entry=C1=C(n2cc(C3=NCCO3)nn2)CCCC1 category_label=0
smiles_entry=O=C(OCc1cc(F)ccc1F)c1cccc(=O)[nH]1 category_label=0

Then this compound:
# input API: query returns whether the compound falls strictly under 80 µM in IC50. Query: O=C(OCc1c(F)c(F)c(F)c(F)c1F)c1cccc(=O)[nH]1
# output 1

====

// values below are pIC50; system is 72 kDa type IV collagenase (Homo sapiens, UniProt P08253)
Give only the number. pIC50 is defined as minus log10 of concentration in molar units.

smiles_entry=O=C(OCc1ccccc1)c1cccc(=O)[nH]1 measured_endpoint=pIC50 value_reported=4.19
smiles_entry=O=C(OCc1cccc(Br)c1)c1cccc(=O)[nH]1 measured_endpoint=pIC50 value_reported=4.17
smiles_entry=O=C(OCCc1ccccc1)c1cccc(=O)[nH]1 measured_endpoint=pIC50 value_reported=4.16

# input Report pIC50 under test system 72 kDa type IV collagenase (Homo sapiens, UniProt P08253) for O=C(Oc1cccc2ccccc12)c1cccc(=O)[nH]1 .
# output 3.96

# input Report pIC50 under test system 72 kDa type IV collagenase (Homo sapiens, UniProt P08253) for O=C(OCc1ccccc1Cl)c1cccc(=O)[nH]1 .
# output 4.16

# input Report pIC50 under test system 72 kDa type IV collagenase (Homo sapiens, UniProt P08253) for O=C(OCCCc1ccccc1)c1cccc(=S)[nH]1 .
# output 4.00

# input Report pIC50 under test system 72 kDa type IV collagenase (Homo sapiens, UniProt P08253) for O=C(Oc1cccs1)c1cccc(=O)[nH]1 .
# output 4.14

# input Report pIC50 under test system 72 kDa type IV collagenase (Homo sapiens, UniProt P08253) for CC(C)=CCOC(=O)c1cccc(=O)[nH]1 .
# output 4.14

# input Report pIC50 under test system 72 kDa type IV collagenase (Homo sapiens, UniProt P08253) for CC#CCOC(=O)c1cccc(=O)[nH]1 .
# output 4.15

# input Report pIC50 under test system 72 kDa type IV collagenase (Homo sapiens, UniProt P08253) for O=C(OCc1ccc(-c2ccccc2)cc1)c1cccc(=S)[nH]1 .
# output 3.96

# input Report pIC50 under test system 72 kDa type IV collagenase (Homo sapiens, UniProt P08253) for O=C(OCc1ccc(C(F)(F)F)cc1)c1cccc(=O)[nH]1 .
# output 3.95

====

Form field: pIC50 (one value per entry).
- ASSAY_SYSTEM: UniProt P39900
Give only the number. pIC50 is defined as minus log10 of concentration in molar units.

smiles_entry=O=C(OCc1ccc(F)cc1)c1cccc(S)n1 value_reported=3.95
smiles_entry=CCCCCCOC(=O)c1cccc(S)n1 value_reported=3.98
smiles_entry=COc1ccc(COC(=O)c2cccc(=O)[nH]2)cc1 value_reported=3.98
smiles_entry=O=C(OCc1cccc(-c2ccccc2)c1)c1cccc(=O)[nH]1 value_reported=4.00
smiles_entry=O=C(OCc1ccc(-c2ccccc2)cc1)c1cccc(=S)[nH]1 value_reported=3.87
smiles_entry=CC(C)OC(=O)c1cccc(=O)[nH]1 value_reported=4.17

# input Report pIC50 under test system UniProt P39900 for O=C(Oc1ccco1)c1cccc(=O)[nH]1 .
# output 4.12

# input Report pIC50 under test system UniProt P39900 for O=C(OCc1c(F)cc(F)cc1F)c1cccc(=O)[nH]1 .
# output 4.51

# input Report pIC50 under test system UniProt P39900 for O=C(OCc1cccc(Cl)c1)c1cccc(=O)[nH]1 .
# output 4.34

# input Report pIC50 under test system UniProt P39900 for O=C(OCc1cc(F)ccc1F)c1cccc(=O)[nH]1 .
# output 4.00

# input Report pIC50 under test system UniProt P39900 for O=C(OCc1cccc(-c2ccccc2)c1)c1cccc(=S)[nH]1 .
# output 4.28
